# Measurement description: RAM signaling pathway blockade in yeast – S. cerevisiae, Pdr1DBD-CYC8 efflux-inhibited sensitized strain, primary screen (AID 1298);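 also: 0% = DMSO untreated cells without growth and 100% = 10 µM 1-NA-PP1 full growth; higher means more yeast growth rescued from 5-FOA killing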
# Condition description: S. cerevisiae cbk1-as DSE1-URA3 strain, 5-FOA growth OD615, 2 d; at 50 µM; active compounds read high
Experimental readout: RAM network inhibition (%)

* O=C(CSc1nc2c([nH]c3ccccc32)c(=O)n1-c1ccccc1)N1CCOCC1 | 5.28
* O=P(O)(CN1CCCCCC1)CN1CCCCCC1 | 4.85
* CCN1CCN(c2ncnc3c2cnn3-c2ccc(C)cc2C)CC1 | 0.63
* Oc1cc(Cc2ccccc2)cnc1CN1CCCCC1 | 3.35
* CC(=O)NCC(=O)N(Cc1ccco1)C1(C(=O)NC2CCCCC2)CCCCC1 | -0.72
* Cc1cccc(CN2CCC(CNC(=O)C3CCCN(S(=O)(=O)c4cnc[nH]4)C3)CC2)c1 (configuration not stated) | 4.03
* COc1ccc(-n2nnc3c(=O)n(CC(=O)N4CCC(C)CC4)cnc32)cc1 | 2.64
* CCOC(=O)N1CCC(NC(=O)c2cc3ccccn3n2)CC1 | 0.26
* COC(=O)C(C#N)C(=C1C(=O)CC(C)(C)CC1=O)c1ccc(O)cc1 (configuration not stated) | 2.01
* Cc1c(N=C/C=C/c2ccccc2)cnn1C | 3.36
* Cc1ccc(OCc2nc(-c3ccccn3)no2)c(Br)c1 | 1.62
* O=C(NCCN1C(=O)C2C3C=CC(C3)C2C1=O)N1CCCCC1 (configuration not stated) | 3.08
* C=CCn1c(SCCOC)nc2c1c(=O)[nH]c(=O)n2C | -0.26
* COc1ccc(N(CC(=O)Nc2cccc(SC)c2)S(C)(=O)=O)cc1Cl | 3.03
* O=C(Cc1cc(=O)[nH]c(=O)[nH]1)NCC1CCCO1 (configuration not stated) | 2.29
* CCOC(=O)N1CCC(N2C(=O)c3ccccc3C2Nc2cc(Cl)c(OC)cc2OC)CC1 (configuration not stated) | 3.54
* CCCCCn1c(=O)[nH]c2cc(C(=O)NCCN3CCOCC3)ccc2c1=O | 5.23
* CC1(C)CC(=O)C=C(NCc2cccnc2)C1 | 1.01
* CCOC(=O)N1CCN(C(=O)C2CCN(C(=O)c3cc4sccc4n3CC)CC2)CC1 | 3.06
* Cc1ccc2cccc(SCC(=O)N3CCOCC3)c2n1 | 1.88
* O=C(Cn1ncc2c1-c1ccccc1OC2)Nc1ccc(Cl)cn1 | 0.83
* CCOC(=O)N1CCC(NC(=O)C2CCCN(C(=O)c3cc4sccc4n3C)C2)CC1 (configuration not stated) | 0.11
* CCOC(=O)Cn1nc(-c2ccc(Cl)cc2)cc1N | 5.56
* COC(=O)CN1C(=O)C(O)(CC(=O)c2cccc(Br)c2)c2ccccc21 (configuration not stated) | 2.42
* Cc1ccccc1-c1c(C)oc2cc(O)ccc2c1=O | 2.67
* COc1ccccc1OCc1nc(C#N)c(N2CC(C)CC(C)C2)o1 (configuration not stated) | 9.85
* COc1ccccc1C(=O)OCn1nnc2ccccc2c1=O | 0.92
* O=C(NC1CCN(Cc2ccccc2)CC1)C1CCN(S(=O)(=O)c2cccc3cccnc23)CC1 | 1.59
* CCOC(=O)C1=C(C)N(C)C(=O)NC1c1cccc(O)c1 (configuration not stated) | -0.57
* Cc1ccc(C)c(C(=O)CC2(O)C(=O)N(C)c3ccccc32)c1 (configuration not stated) | -0.11
* COc1ccc(-c2nc(N3CCCC3)[nH]c(=O)c2C#N)cc1 | 3.39
* CCN(CC)Cc1c(C(=O)OC)nnn1-c1nonc1N | 0.53
* CCOc1ccc(-n2c(Cc3cc(=O)[nH]c(=O)[nH]3)nnc2SC(C)C(=O)OC)cc1 (configuration not stated) | 3.49
* C=CCn1c(=O)n(CCOC)c(=O)c2sc3ccccc3c21 | 1.71
* O=C(CSc1ccc2nnc(-c3ccccc3)n2n1)N1CCN(c2ccccc2)CC1 | 0.93
* CN(C)CCCN1C(=O)CSC1c1ccccc1 (configuration not stated) | 0.73
* Cc1ccc(C(C(=O)NC2CCCCC2)N2CCOCC2)cc1 (configuration not stated) | 7.79
* CCn1cc(C(=O)NC2CCCCC2)c(=O)c2cc(S(=O)(=O)N(C)C)ccc21 | -1.57
* COCCCNC(=O)CSc1ccc(Cl)cc1 | 2.53
* O=C(OCC(=O)c1ccc[nH]1)c1ccc(S(=O)(=O)N2CCCCC2)cc1 | 3.17
* Cn1nnnc1SCC(=O)Nc1ccccc1-c1ccccc1 | 0.77
* CC1Cc2ccccc2N1C(=O)C12CCC(C)(C(=O)C1)C2(C)C (configuration not stated) | 6.06
* c1ccc2c(c1)nc(NC1CCCCC1)c1nncn12 | 2.5
* CCOC(=O)Cc1cnc(NC(=O)c2ccccc2)s1 | 2.27
* COC(=O)NCc1ccc(Cl)c(Cl)c1 | 4.44
* CC(=O)c1cccc(NC(=O)CCOc2ccccc2)c1 | 1.57
* Cc1cccc(-n2ncc3c(N4CCC5(CC4)OCCO5)ncnc32)c1 | 3.86

Hey, just so you know, these numbers are from PubChem BioAssay.
